assay: inhibitors of hydroxyurea-induced Chk1 phosphorylation, primary screen, imaging, HeLa, phospho-Chk1 nuclear intensity (AID 1187); details: hydroxyurea-induced phospho-Chk1 immunofluorescence imaging, higher = more signal; also: test concentration not given here
Can you tell me z-score for the items I'm about to list?
Give bare numbers.

Below are worked cases with known answers.
[
  {
    "molecule": "N#Cc1ccc(NN2C(C(O)c3c(F)cccc3Cl)C=CC3C(=O)N(c4ccccc4)C(=O)C32)cc1 (stereo unspecified)",
    "z-score": 0.0457
  },
  {
    "molecule": "C=C(CCCC)C(=O)CC[C@@H](OC(=O)c1cccnc1)c1ccc(CO)o1",
    "z-score": -0.023
  },
  {
    "molecule": "O=C1O[C@H](c2ccccc2)[C@H](c2ccccc2)N2[C@H]1[C@@H](C(=O)NC[C@H](O)c1ccccc1)[C@]1(C(=O)Nc3ccccc31)[C@H]2c1ccc(OCCO)cc1",
    "z-score": 0.177
  },
  {
    "molecule": "O=C(NCc1ccccc1)[C@@]1(CCS(=O)(=O)c2ccccc2)N=C(c2ccc(OCCCO)cc2)O[C@H]1c1ccccc1",
    "z-score": -0.64
  }
]

Return reported z-score values for all items listed beneath this line.
1. CC(C)(C)OC(=O)CC[C@@]1(C(=O)NCCN2CCOCC2)N=C(c2ccc(OCCCO)cc2)O[C@@H]1c1ccccc1N=[N+]=[N-]
2. Cc1ccc(S[C@]2(C(=O)NC3CC3)CC(=O)N(C3Cc4ccccc4C3)[C@@H]2c2ccc(CO)cc2)cc1
3. Cc1ccc(S[C@]2(C(=O)NCC(F)(F)F)CC(=O)N(C(C)C)[C@@H]2c2ccc(CO)cc2I)cc1
4. COCCCNC(=O)[C@@]1(Cc2ccccc2)N=C(c2ccc(OCCCO)cc2)O[C@H]1c1ccccc1
5. O=C1OCC=C[C@H]2OC34C=CCN(c5ccc6ccccc6c5)C(=O)[C@H]3N(CCCCCCO)C(=O)[C@@H]4[C@@H]12 (stereo partly specified)
6. COc1ccc(NN2C(C(O)c3ccc([N+](=O)[O-])cc3)C=CC3C(=O)N(C4CCCCC4)C(=O)C32)cc1 (stereo unspecified)
7. Cc1ccc(S[C@]2(C(=O)NCCN3CCOCC3)CC(=O)N(Cc3ccccc3)[C@@H]2c2ccc(CO)cc2I)cc1

Result:
0.297
-0.716
0.84
0.221
-0.572
-0.331
0.184
